experiment: Toxicity liver stage against HepG2, at 10uM; assay type: cell-based; set-up: test concentration 10 uM, cell line HepG2-A16-CD81EGFP; settings: human, HepG2-A16-CD81EGFP cells; read-out: INHIBITION
Measured cytotoxicity at 10 µM by item
All answers are understood in %, so give the number only.

Compound	cytotoxicity at 10 µM (%)
OC1(CN2CCCC2)COCCN(c2nnc(-c3ccccc3)s2)C1 (centres undefined)	-10.1

Measured cytotoxicity at 10 µM, `CCOc1nn(CC)cc1-c1nnc(SCC)n1C` : 1.81

Value of cytotoxicity at 10 µM reported for the compound CCc1nccc(CN2CCCC(CNC(=O)c3ccccn3)C2)n1 (centres undefined) is 4.63

For reference, reported cytotoxicity at 10 µM for `COCCN1CCc2ncnc(OC(C)C)c2CC1` stands at 8.26

So, `CCS(=O)(=O)N1CCC2(CCN(CC(=O)N(C)C)C2=O)CC1` ? Its cytotoxicity at 10 µM was 5.68

====

experiment: Toxicity liver stage against HepG2, at 10uM; type: cell-based; set-up: test concentration 10 uM, cell line HepG2-A16-CD81EGFP; settings: human, HepG2-A16-CD81EGFP cells; read-out: INHIBITION
Quantity: cytotoxicity at 10 µM (%)
Quick note: give the figure in %, leave out the unit.

// cytotoxicity at 10 µM value for `COc1ccccc1OCc1nc(C(C)C)no1` : 14

// field: cytotoxicity at 10 µM; key: COCc1nc(C(=O)N2CCCC(n3ccnc3)C2)cs1 (stereo unspecified) ; value = -2.12

Consider `c1ccc(CNc2ncc(CN3CC[C@@H]4CC[C@H](C3)N4)cn2)cc1` . Its measured cytotoxicity at 10 µM is -3.8

Kindly note the recorded cytotoxicity at 10 µM for COc1cccc2c1OCC(CNC(=O)COCC(F)(F)C(F)F)C2 (stereo unspecified) , which is -134

Entry `CCc1nc(NC(=O)NCCc2scnc2C)nn1C` , cytotoxicity at 10 µM reported as 0.102

Looking up `O=C(C1CCC1)N1CCC2(CCNCC2)C1` , I see its cytotoxicity at 10 µM listed as -3.39

====

assay: Toxicity liver stage against HepG2, at 10uM; assay type: cell-based; design: test concentration 10 uM, cell line HepG2-A16-CD81EGFP; conditions: human, HepG2-A16-CD81EGFP cells; read-out: INHIBITION
Quantity: cytotoxicity at 10 µM (%)
Unit % implied. Number only.

Known results for compounds:
Compound	cytotoxicity at 10 µM / %
CCc1[nH]ncc1C(=O)N1CCN(c2nc(C)cc(OC)n2)CC1	3.51
CC(=O)N1CCc2ncn(C)c2C1C(=O)N1CCCC1 (stereo unspecified)	1.9
CC(C)CC(c1nc(-c2cnn(C)c2)no1)N1CCCCC1=O (stereo unspecified)	-42
O=S(=O)(NC1CCN(CC(F)(F)F)C1)c1cc(F)cc(F)c1 (stereo unspecified)	-5.18
N#Cc1cccnc1N[C@@H]1c2ccccc2C[C@@H]1O	2.28

# input for lookup
According to the records, this compound `CNC(=O)Cc1nc(CNc2ccc(SC)c(F)c2)cs1` displays cytotoxicity at 10 µM of -1.99

====

Below: a set of entries, each annotated with reported cytotoxicity at 10 µM.
assay: Toxicity liver stage against HepG2, at 10uM; format: cell-based; set-up: test concentration 10 uM, cell line HepG2-A16-CD81EGFP; details: human, HepG2-A16-CD81EGFP cells; read-out: INHIBITION
Expressed in %, but write only the number.

Observe how each entry below is paired with its result.
Molecule	Unit string	Result number
Cc1csc(Nc2cc(C3CN(C(C)C)C3)nc(C)n2)n1	%	-7.56
Cn1ncc2c(NCC3CCS(=O)(=O)C3)nc(C3CCCC3)nc21 (stereo unspecified)	%	-5.1
Cc1cccc(NC(=O)N2CCC3(CCC(C(=O)N(C)C)O3)CC2)c1 (stereo unspecified)	%	-107
COCCC(=O)N1CC[C@H]2C(=O)N(c3ccsc3)CCO[C@H]2C1	%	10.4
O=C(c1ccc[nH]1)N1CCC2(CC1)CC(Oc1cccnc1)CO2 (stereo unspecified)	%	-7.69
Cc1nc(C)c2c(n1)CCN(Cc1ccsc1)CC2	%	-126
O=C1[C@H]2CN(Cc3ccco3)C[C@H]2CN1c1cncnc1	%	-3.64
COC(=O)Cn1c(=O)[nH]c2cn(-c3cccc(Cl)c3)c(=O)n21	%	-1.39
CC(=O)N1CCCCC1c1nc(N)ncc1-c1ccccc1 (stereo unspecified)	%	-0.233
CCN(CCc1nc2cc(C)ccc2[nH]1)C(=O)COC	%	-5.89

Consider now this further molecule.
Consider Cc1csc(CCCNC(=O)NC2CC(=O)N(C(C)(C)C)C2)n1 (stereo unspecified) . Its measured cytotoxicity at 10 µM is -8.88

====

Documented cytotoxicity at 10 µM across a set of compounds
experiment: Toxicity liver stage against HepG2, at 10uM; format: cell-based; set-up: test concentration 10 uM, cell line HepG2-A16-CD81EGFP; settings: human, HepG2-A16-CD81EGFP cells; read-out: INHIBITION
Give your result in % as a bare value.

Worked examples follow.
Compound	cytotoxicity at 10 µM (%)
COc1ccsc1C(=O)NCCN1CCOCC1	6.57
COCCCC1(C(=O)O)CCCN(C(=O)c2ccc(C(C)C)[nH]c2=O)C1 (stereo not drawn)	-52.9
CC(C)c1nnc(CN2CCCC(Cn3cncn3)C2)o1 (stereo not drawn)	-3.39
CN(Cc1cnn(C)c1)C(=O)NCc1nnc2n1CCC2	-4.1
c1ccc(C2CCCN2C2CSCCSC2)nc1 (stereo not drawn)	-3.77

Reported cytotoxicity at 10 µM for Cc1nc(C2CCCN2C(=O)CCn2cncn2)no1 (stereo not drawn) was -17.8

Noted for `CN(Cc1nc(-c2cccnc2)no1)C(=O)c1cnc2n1CCCC2` : its cytotoxicity at 10 µM reads 6.32

Input `Cc1nc(CN2CCCn3nc(CNC(=O)C4CCC4)cc3C2)co1` . Output cytotoxicity at 10 µM: 3.26

====

Each entry below carries its recorded cytotoxicity at 10 µM.
assay: Toxicity liver stage against HepG2, at 10uM; assay type: cell-based; parameters: test concentration 10 uM, cell line HepG2-A16-CD81EGFP; details: human, HepG2-A16-CD81EGFP cells; read-out: INHIBITION
Your answer should be a plain number; it is taken to be in %.

# count of solved cases: 10
Compound	Unit string	Result number
O=C1CCC2(CCCN(C(=O)c3ncc[nH]3)C2)CN1CCc1c[nH]cn1 (stereo unspecified)	%	-2.47
CC(C)c1cc(N2CCC(C(C)N3CCCC3)CC2)n2nccc2n1 (stereo unspecified)	%	-1.86
CC(Cc1cnccn1)NC(=O)COc1ccc(F)cc1F (stereo unspecified)	%	-44.4
Cn1cc(C2COC3(CCN(C(=O)c4ccsc4)CC3)C2)cn1 (stereo unspecified)	%	-67
Cc1cccc2nc(C(=O)N3CCCC[C@]4(C)NC(=O)CCC[C@H]34)cn12	%	-1.85
COC(C)(C)C(=O)N1CCC(c2cc(CN(C)C)n(C)n2)CC1	%	0.748
Cn1cccc1-c1cc(C(=O)NCCCc2csc(N)n2)[nH]n1	%	-8.9
CCc1ccc(C(=O)N2CCC(c3nncn3CC)CC2)cc1	%	-2.95
Cc1noc(CN2CCC(Cc3ccc(F)cc3)CC2)n1	%	11.3
O=C(NC[C@H]1OC[C@@H](NC2CCC(F)(F)CC2)[C@@H]1O)C1CCCC1	%	-77.9

Now look at this entry.
Looking up `CC(C)n1c(C(=O)N2CCCC2)nc2c1CCN(C)C2` , I see its cytotoxicity at 10 µM listed as 15.3

====

assay: Toxicity liver stage against HepG2, at 10uM; assay type: cell-based; set-up: test concentration 10 uM, cell line HepG2-A16-CD81EGFP; conditions: human, HepG2-A16-CD81EGFP cells; read-out: INHIBITION
Quantity: cytotoxicity at 10 µM (%)
Write the value in % as a bare number.

Illustrative cases are given below, each with its answer.
Compound	Unit string	cytotoxicity at 10 µM
O=S(=O)(CCCNCCn1cccn1)c1ccccc1	%	5.96
Cc1nccn1CCCN1CCC(c2nccn2CC2CCC2)CC1	%	-20.8
CN(CC1CC1)S(=O)(=O)c1ccc(C(F)(F)F)cc1C#N	%	2.95
Cc1ccc(NC(=O)N2CCC(NC(=O)c3ccc(C)o3)CC2)cc1	%	0.385
Cc1cc(Nc2ncccn2)nc(C2CCCN(CCO)C2)n1 (configuration not stated)	%	1.09
O=C(Cn1ccc(=O)[nH]c1=O)NCC1Cc2ccccc2O1 (configuration not stated)	%	3.74
Cc1ccc(NC(=O)Nc2c(O)c3ccccc3oc2=O)cc1	%	3.21
Cc1ccc(CS(=O)(=O)N2CC[C@H]3[C@H]2CC(=O)N3C)cc1	%	-7.33

Here is the next item to consider.
According to the records, this compound `Cc1cnn(C2CN(CC(=O)NCc3ccccn3)C2)c1` displays cytotoxicity at 10 µM of -10.9
